- System: RSK2(Kin.Dom.1-N-terminal)
- Construct: gene RPS6KA3
- test context: concentration: 1 μM, replicates: in singlicate; n = 1;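 further: KINOMEscan kinase panel screen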
The label is Satisfied for %Inh below 1% and Not satisfied for %Inh equal to or exceeding 1%.

Below, 2 molecules whose answers are already recorded.
1. Nc1ncnc2scc(-c3ccc(NC(=O)Cc4cc(F)ccc4F)cc3)c12.O=C(O)C(F)(F)F [SB-731254-M] | Not satisfied
2. CNc1nccc(-c2ccc3c(N)n[nH]c3c2)n1 [GSK2206003] | Not satisfied

Say whether its %Inh is strictly beneath 1%. Entry: O=C(Nc1n[nH]c2nc(-c3cccc(O)c3)ccc12)C1CC1 [SB-711805]
Not satisfied

Say whether its %Inh is strictly beneath 1%. Entry: Cc1cccc(Nc2nc(N[C@H]3CCCC[C@H]3N)ncc2C(N)=O)c1.Cl [GSK986310]
Not satisfied

Say whether its %Inh is strictly beneath 1%. Entry: "CC(C)(C)c1ccc(C(=O)Nc2cn3cc(-n4ccnc4)ccc3n2)cc1"
Not satisfied

Say whether its %Inh is strictly beneath 1%. Entry: CN(c1ccc2c(c1)nc(NCc1ccccc1)n2C)c1ccnc(Nc2ccc(CS(C)(=O)=O)cc2)n1.Cl [GW811603]
Satisfied

Say whether its %Inh is strictly beneath 1%. Entry: COc1cc(Nc2ccnc3cc(-c4ccncc4)ccc23)cc(OC)c1OC.Cl [GW494610]
Not satisfied

Say whether its %Inh is strictly beneath 1%. Entry: COC(=O)Nc1nc2ccc(Oc3ccc(CC(=O)Nc4cc(C(F)(F)F)ccc4F)cc3)cc2[nH]1 [GW680903]
Satisfied

###

- System: SRPK2
- test context: concentration: 1 μM, replicates: in singlicate; n = 1
%Inh by entry:
Respond with the bare value in %.

1. O=C(O)C(F)(F)F.O=c1[nH]ccc2nc(N[C@@H]3CCNC3)nc(Nc3cc(Cl)cc(Cl)c3)c12 | 14
2. COC(=O)Nc1nc2ccc(Oc3ccc(CC(=O)Nc4cc(C(F)(F)F)ccc4F)cc3)cc2[nH]1 | 0

// next item, %Inh requested
Reported %Inh for COc1cc(Nc2nccc(N3CCC(NC(=O)Nc4ccc5c(c4)OCO5)C3)n2)cc(OC)c1OC (stereo not drawn) : what is it?
0

###

- Tested on: LATS2
- test context: concentration: 1 μM, replicates: in singlicate; n = 1
%Inh by entry:
Respond with the bare value in %.

Reported %Inh for N#Cc1cnc2cc(-c3cnc(CNCCN4CCOCC4)s3)ccc2c1Nc1ccc(Oc2ccccc2)cc1 [GW664114] : what is it?
3

Reported %Inh for O=C(Nc1n[nH]c2nc(-c3ccccc3O)ccc12)C1CC1 [SB-711880] : what is it?
0

Reported %Inh for O=C(Nc1n[nH]c2nc(-c3cccc(O)c3)ccc12)C1CC1 [SB-711805] : what is it?
1

Reported %Inh for CC(C)c1nc(-c2cccc(NS(=O)(=O)c3c(F)cccc3F)c2)c(-c2ccnc(Nc3ccc(N4CCOCC4)nc3)n2)s1.Cl [GSK1723980] : what is it?
0

Reported %Inh for COc1cccc2c(-c3ccncc3)c(-c3ccc(F)cc3)nn12 [GW468513] : what is it?
8

###

- Test system: PIK3C2B
- test context: concentration: 1 μM, replicates: in singlicate; n = 1
%Inh by entry:
Respond with the bare value in %.

1. CC(=O)Nc1cn2nc(Oc3cccc(NC(=O)c4cccc(C(F)(F)F)c4)c3)ccc2n1 | 0
2. NCCC(NC(=O)c1cc(Br)c(-c2ccnc3[nH]ccc23)s1)c1ccccc1.O=C(O)C(F)(F)F.O=C(O)C(F)(F)F (stereo not shown) | 0
3. Cc1ccc(-c2ccc3occ(-c4ccc(S(C)=O)cc4)c3c2)nn1 (stereo not shown) | 0

// next item, %Inh requested
Reported %Inh for "COc1cccc(C2=C(Nc3cccc(O)c3)C(=O)NC2=O)c1" : what is it?
0

###

- System: JNK3
- Construct: gene MAPK10
- test context: concentration: 1 μM, replicates: in singlicate; n = 1
Classification scheme (%Inh): Low: < 10%; Mid: ≥ 10% and < 30%; High: ≥ 30%

Tag the class for "CCNc1nccc(-c2c(-c3ccc(F)cc3)ncn2C2CCN(C)CC2)n1"
High

Tag the class for "N#CC1(c2cccc(C(=O)Nc3cccc(Oc4ccc5nc(NC(=O)C6CC6)sc5n4)c3)c2)CC1"
Low

Tag the class for COc1cc(Nc2ccnc3cc(-c4ccncc4)ccc23)cc(OC)c1OC.Cl [GW494610]
High

###

%Inh by entry:
- Test system: PRKCH
- test context: concentration: 1 μM, replicates: in singlicate; n = 1
Respond with the bare value in %.

Take a look at these entries with their results.
1) CSc1ccc(NC2=C(c3ccc(Cl)cc3)C(=O)NC2=O)cc1 | 2
2) COC(=O)Nc1nc2ccc(Oc3ccc(CC(=O)Nc4cc(C(F)(F)F)ccc4F)cc3)cc2[nH]1 | 0
3) Nc1ncc(-c2cn[nH]c2)c2scc(-c3ccc4c(c3)CCN4C(=O)Cc3ccccc3)c12 | 16
4) COc1cc(Nc2nccc(N3CCC(NS(=O)(=O)c4ccc(NC(C)=O)cc4)CC3)n2)cc(OC)c1OC | 35
5) NCCC(NC(=O)c1cc(Br)c(-c2ccnc3[nH]ccc23)s1)c1ccccc1.O=C(O)C(F)(F)F.O=C(O)C(F)(F)F (centres unmarked) | 98.3
6) c1ccc(Oc2ccc(Nc3ccnc4cc(-c5ccc(CN6CCCCC6)o5)ccc34)cc2)nc1 | 5

Enter reported %Inh observed with PRKCH for "Cc1ccc(O)cc1Nc1ccnc2ccc(C(C)(C)C)cc12"
3

Enter reported %Inh observed with PRKCH for "CN(C)CCOc1ccc(-c2cc(-c3ccc(Cl)c(O)c3)c(-c3ccncc3)[nH]2)cc1.Cl.Cl"
2

###

- Test system: EPHA1
- test context: concentration: 1 μM, replicates: in singlicate; n = 1
%Inh by entry:
Respond with the bare value in %.

Take a look at these entries with their results.
1) CN(C)c1ncnc2nc[nH]c12 | 0
2) Cc1ccc(NC(=O)c2cccc(N3CCCCC3)c2)cc1-c1ccc(C(=O)NCC2CC2)cc1 | 18

// next item, %Inh requested
Reported %Inh for "Cc1cc(-c2c(-c3ccc(F)cc3)ncn2CCCN2CCOCC2)nc(N)n1" : what is it?
0

###

- Test system: STK36
- test context: concentration: 1 μM, replicates: in singlicate; n = 1
measured endpoint: %Inh (%)
Respond with the bare value in %.

Enter reported %Inh observed with STK36 for "N#CC1(c2cccc(C(=O)Nc3cccc(Oc4ccc5nc(NC(=O)C6CC6)sc5n4)c3)c2)CC1"
0

Enter reported %Inh observed with STK36 for "COc1ccc(NC(=O)c2ccoc2)cc1-c1ccc(C(=O)NCC2CC2)cc1"
0

Enter reported %Inh observed with STK36 for "CS(=O)(=O)c1cccc(CNc2nc(Nc3ccc4c(c3)CCC(=O)N4)ncc2C(F)(F)F)c1"
0

Enter reported %Inh observed with STK36 for "O=C(Nc1n[nH]c2nc(-c3ccccc3)ccc12)C1CC1"
8

Enter reported %Inh observed with STK36 for "CCn1c(-c2nonc2N)nc2c(-c3ccccc3)ncc(OCCCN)c21.O=C(O)C(F)(F)F.O=C(O)C(F)(F)F"
0

Enter reported %Inh observed with STK36 for "CSc1ccc(NC2=C(c3ccc(Cl)cc3)C(=O)NC2=O)cc1"
15

###

- Tested on: PDGFRB
- test context: concentration: 1 μM, replicates: in singlicate; n = 1
%Inh by entry:
Respond with the bare value in %.

1. NCCC(NC(=O)c1cc(Br)c(-c2ccnc3[nH]ccc23)s1)c1ccccc1.O=C(O)C(F)(F)F.O=C(O)C(F)(F)F (stereo not shown) | 53
2. COc1cccc(CC(=O)N2CCc3cc(-c4cn(C)c5ncnc(N)c45)ccc32)c1 | 99.2
3. Cc1ccc(-c2ccc3occ(-c4ccc(S(C)=O)cc4)c3c2)nn1 (stereo not shown) | 0
4. COC(=O)Nc1nc2cc(Oc3ccc(NC(=O)Nc4cccc(SC)c4)cc3)ccc2[nH]1.Cl | 100
5. Cc1ccc(O)cc1Nc1ccnc2ccc(C(C)(C)C)cc12 | 62

Reported %Inh for "CN(c1ccc2c(c1)nc(NCc1ccccc1)n2C)c1ccnc(Nc2ccc(CS(C)(=O)=O)cc2)n1.Cl" : what is it?
100

Reported %Inh for "Nc1ncc(-c2ccc3nccc(-c4ccncc4)c3c2)cc1S(=O)(=O)N1CCCCC1" : what is it?
22

Reported %Inh for "Cc1ccc(O)cc1Nc1ccnc2cc(-c3ccc(CN4CCCCC4)o3)ccc12" : what is it?
99.7

Reported %Inh for "Cc1ccc(NC(=O)c2ccc(Cl)c(Cl)c2)cc1-c1ccc(C(=O)Nc2ccncc2)cc1" : what is it?
100

Reported %Inh for "CN(c1ccc(NC(=O)N2CCN(CCCN3CCOCC3)CC2)cc1)c1ccnc(Nc2ccc(CS(C)(=O)=O)cc2)n1.Cl" : what is it?
99.4

This collection of values is drawn from paper PMC5540273.
